- protocol: Photochromic properties of lens samples (2 mm, compound in matrix I or II) exposed to UV radiation from a xenon lamp
- Format: physicochemical
- condition: lens sample, Matrix II (50/50 D121 / PEGDMA 400 copolymer)
parameter: T0 (the transmission before exposure to UV) (%)

compound | experimental_result
CN1c2ccccc2C(C)(C)C12C=Nc1c(c(C(=O)N3CCc4ccccc43)cc3ccccc13)O2 (stereo not drawn) [Example 4] | 85.4
CC(C)CN1c2ccccc2C(C)(C)C12C=Nc1c(c(C(=O)N3CCCCC3)cc3ccccc13)O2 (stereo not drawn) [Example 7] | 86.9
CN1c2ccccc2C(C)(C)C12C=Nc1c(c(C(=O)N3CCOCC3)cc3ccccc13)O2 (stereo not drawn) [Example 1] | 88.9
COc1ccc2c(c1)C(C)(C)C1(C=Nc3c(c(C(=O)N4CCCCC4)cc4ccccc34)O1)N2C (stereo not drawn) [Example 6] | 81.9
CN1c2ccccc2C(C)(C)C12C=Nc1c(ccc3ccccc13)O2 (stereo not drawn) [Control I, reference compound] | 90.5
Cc1cc2c(cc1C)C(C)(C)C1(C=Nc3c(ccc4ccccc34)O1)N2C (stereo not drawn) [Control II, reference compound] | 90.5
